test system: Sorghum; experiment: Test F over-the-top soil/foliage treatment; format: in vivo; parameters: scale not given here; settings: soil/foliage spray; 0.06 kg/ha; ~14 days
MEASURE: Sorghum response rating

Reference set (3 entries):
INSERT INTO measurements (compound, recorded_measurement) VALUES
  ('COc1cc(OC)nc(NC(=O)NS(=O)(=O)c2ccccc2OS(C)(=O)=O)n1 [Compound 1, methanesulfonate]', '10C'),
  ('CCCS(=O)(=O)Oc1ccccc1S(=O)(=O)NC(=O)Nc1nc(C)nc(OC)n1', 0),
  ('COc1cc(C)nc(NC(=O)NS(=O)(=O)c2ccccc2OS(C)(=O)=O)n1 [Compound 2, methanesulfonate]', '10C');

For the compound Cc1cc(C)nc(NC(=O)NS(=O)(=O)c2ccccc2OS(C)(=O)=O)n1 [Compound 3, methanesulfonate] , the measured Sorghum response rating on Sorghum was 10C

* * *

tested on: Alfalfa; test: Test F over-the-top soil/foliage treatment; type: in vivo; parameters: scale not given here; settings: soil/foliage spray; 0.06 kg/ha; ~14 days
MEASURE: Alfalfa response rating (C)
Give your result in C as a bare value.

INSERT INTO measurements (compound, unit_annotation, recorded_measurement) VALUES
  ('Cc1cc(C)nc(NC(=O)NS(=O)(=O)c2ccccc2OS(C)(=O)=O)n1 [Compound 3, methanesulfonate]', 'C', 9);

response.value for CCCS(=O)(=O)Oc1ccccc1S(=O)(=O)NC(=O)Nc1nc(C)nc(OC)n1 [Compound 39] (field: Alfalfa response rating) = 10

According to the records, this compound COc1cc(OC)nc(NC(=O)NS(=O)(=O)c2ccccc2OS(C)(=O)=O)n1 [Compound 1, methanesulfonate] displays Alfalfa response rating of 9

Memo: COc1cc(C)nc(NC(=O)NS(=O)(=O)c2ccccc2OS(C)(=O)=O)n1 [Compound 2, methanesulfonate] , reported Alfalfa response rating: 10
